Target desc: 72 kDa type IV collagenase (Homo sapiens)
Sequence (P08253 whole entry): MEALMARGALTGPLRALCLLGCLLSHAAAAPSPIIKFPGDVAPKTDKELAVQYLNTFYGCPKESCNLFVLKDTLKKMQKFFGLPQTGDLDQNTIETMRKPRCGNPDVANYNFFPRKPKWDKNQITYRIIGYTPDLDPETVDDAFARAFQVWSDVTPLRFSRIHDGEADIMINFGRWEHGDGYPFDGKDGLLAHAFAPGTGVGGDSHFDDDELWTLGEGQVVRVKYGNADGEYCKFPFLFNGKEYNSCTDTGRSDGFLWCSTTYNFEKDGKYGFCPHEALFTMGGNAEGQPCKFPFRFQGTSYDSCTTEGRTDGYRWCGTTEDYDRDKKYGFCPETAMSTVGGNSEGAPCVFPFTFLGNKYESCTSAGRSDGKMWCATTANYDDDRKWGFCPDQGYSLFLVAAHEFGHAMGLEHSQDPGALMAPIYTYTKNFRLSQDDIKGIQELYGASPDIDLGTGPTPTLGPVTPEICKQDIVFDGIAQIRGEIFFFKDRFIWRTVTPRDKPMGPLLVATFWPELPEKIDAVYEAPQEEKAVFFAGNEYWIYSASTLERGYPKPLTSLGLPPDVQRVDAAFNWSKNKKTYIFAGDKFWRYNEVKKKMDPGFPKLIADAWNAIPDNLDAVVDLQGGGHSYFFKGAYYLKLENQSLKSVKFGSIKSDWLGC
pKi: −log10 of the molar value.

# Smiles, pKi
measured = [
    ("Cc1ccc(CCC[C@H](CC(=O)NO)C(=O)N[C@@H](CC2CCCCC2)C(=O)NCCC(=O)NCCCCN(C)C)cc1", 10.52),
    ("O=C(C[C@@H](CCCc1ccccc1)C(=O)N[C@@H](CC1CCCCC1)C(=O)NCCC(=O)NCCc1ccc(S(=O)(=O)O)cc1)NO", 9.23),
    ("O=C(C[C@@H](CCCc1ccc(Cl)cc1)C(=O)N[C@@H](CC1CCCCC1)C(=O)NCCC(=O)NCCCCN1CCOCC1)NO", 10.52),
    ("COC(=O)CCNC(=O)CCNC(=O)[C@H](CC1CCCCC1)NC(=O)[C@H](CCCc1ccc(Cl)cc1)CC(=O)NO", 11.00),
    ("CN(C)CCCCNC(=O)CCNC(=O)[C@H](CC1CCCCC1)NC(=O)[C@H](CCCc1ccc(Cl)cc1)CC(=O)NO", 10.30),
]
